Parameter pIC50, tested on casein kinase 1 epsilon (CK1 epsilon) (Homo sapiens (Human), UniProt P49674), listed per item.
Sequence (P49674 whole entry): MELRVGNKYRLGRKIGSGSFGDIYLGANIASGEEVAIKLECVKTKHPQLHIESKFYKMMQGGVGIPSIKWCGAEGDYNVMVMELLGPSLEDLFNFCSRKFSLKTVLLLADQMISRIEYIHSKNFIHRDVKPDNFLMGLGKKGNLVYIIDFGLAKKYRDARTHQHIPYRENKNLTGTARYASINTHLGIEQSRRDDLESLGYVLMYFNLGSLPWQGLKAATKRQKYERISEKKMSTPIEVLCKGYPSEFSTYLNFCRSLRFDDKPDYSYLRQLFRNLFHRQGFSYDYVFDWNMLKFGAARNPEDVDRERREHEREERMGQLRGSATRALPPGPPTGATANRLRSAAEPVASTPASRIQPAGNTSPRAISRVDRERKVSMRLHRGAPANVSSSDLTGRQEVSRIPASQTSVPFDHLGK
pIC50: −log10 of the molar value.

compound: CC(C)(C)CCNC(=O)N1CCn2c(Cl)c(-c3ccccc3)c(C(N)=O)c2C1 [Compound 72]
pIC50: 7.77 to 9.00
--
compound: NC(=O)c1c(-c2cccc(F)c2)c(Cl)n2c1CN(C(=O)N[C@H]1CC[C@H](O)CC1)CC2 [Compound 83]
pIC50: 8.40 to 8.70
--
compound: CON=C1CCC(NC(=O)N2CCn3c(Cl)c(-c4cccc(F)c4)c(C(N)=O)c3C2)CC1 (centres unmarked) [Compound 86]
pIC50: > 9.00
--
compound: NC(=O)c1c(-c2cccc(F)c2)c(Cl)n2c1CN(C(=O)NC1COC1)CC2 [Compound 90]
pIC50: 8.15 to 8.22
--
compound: CC(C)(C)NC(=O)N1CCn2c(c(C(N)=O)c(-c3ccc(C4CCCCC4)cc3)c2C2CC2)C1 [Compound 14]
pIC50: 5.96 to 6.87

* * *

pIC50: −log10 of the molar value.
// casein kinase 1 epsilon (CK1 epsilon) (Homo sapiens (Human)) pIC50 records
observed_property: pIC50

compound: CC(C)(C)ON=C1CCC(NC(=O)N2CCn3c(Cl)c(-c4cccc(F)c4)c(C(N)=O)c3C2)CC1 (stereo not drawn) [Compound 87]
tgt: casein kinase 1 epsilon (CK1 epsilon) (Homo sapiens (Human))
result: > 9.00

compound: COc1cccc(-c2c(C(N)=O)c3n(c2Cl)CCN(C(=O)NC(C)(C)C)C3)c1 [Compound 62]
tgt: casein kinase 1 epsilon (CK1 epsilon) (Homo sapiens (Human))
result: 8.40 to 9.00

compound: CC(C)(C)NC(=O)N1CCn2c(Cl)c(-c3cccc(C#N)c3)c(C(N)=O)c2C1 [Compound 65]
tgt: casein kinase 1 epsilon (CK1 epsilon) (Homo sapiens (Human))
result: 8.70 to 9.00

compound: NC(=O)c1c(-c2cccc(F)c2)c(Cl)n2c1CN(C(=O)NCC1(CO)CC1)CC2 [Compound 75]
tgt: casein kinase 1 epsilon (CK1 epsilon) (Homo sapiens (Human))
result: 8.30 to 8.40

compound: CC(C)(NC(=O)N1CCn2c(C#N)c(-c3cccc(F)c3)c(C(N)=O)c2C1)C(F)(F)F [Compound 107]
tgt: casein kinase 1 epsilon (CK1 epsilon) (Homo sapiens (Human))
result: > 9.00

compound: COc1ccc(-c2c(C(N)=O)c3n(c2C2CC2)CCN(C(=O)NC24CC5CC(CC(C5)C2)C4)C3)cc1 [Compound 55]
tgt: casein kinase 1 epsilon (CK1 epsilon) (Homo sapiens (Human))
result: 8.30 to 8.52

compound: NC(=O)c1c(-c2ccccc2)c(Cl)n2c1CN(C(=O)NC1CCCCC1)CC2 [Compound 82]
tgt: casein kinase 1 epsilon (CK1 epsilon) (Homo sapiens (Human))
result: 8.15 to 9.00

compound: CC(C)(C)NC(=O)N1CCn2c(c(C(N)=O)c(-c3cccc(C#N)c3)c2C2CC2)C1 [Compound 21]
tgt: casein kinase 1 epsilon (CK1 epsilon) (Homo sapiens (Human))
result: 7.34 to 7.59

compound: NC(=O)c1c(-c2cccc(F)c2)c(Cl)n2c1CN(C(=O)NC1CCOCC1)CC2 [Compound 98]
tgt: casein kinase 1 epsilon (CK1 epsilon) (Homo sapiens (Human))
result: 7.80 to 8.70
